Each record here notes measured EC50.
Tested on: human PBMC (Th17 cells)
Measurement Notes: Th17 differentiation and IL-17 secretion in human PBMC
Format: cell-based
Condition Details: IL-17 ELISA after 48 hours
Metric: EC50 (nM)

1) CCS(=O)(=O)c1ccc(CC(=O)Nc2cc(Cl)c(-c3ccc(S(C)(=O)=O)cc3)c(Cl)c2)cc1	61.6
2) CCS(=O)(=O)c1ccc(-c2c(Cl)cc(NC(=O)C(COC)c3ccc(S(=O)(=O)CC)cc3)cc2Cl)cc1 (stereo not shown)	6.2
3) CCS(=O)(=O)c1ccc(CC(=O)Nc2cc(Cl)c(-c3ccc(S(C)(=O)=O)cc3)c(Cl)c2)nc1	347
4) CCS(=O)(=O)c1ccc(-c2c(Cl)cc(NC(=O)C(COC)c3ccc(S(C)(=O)=O)cc3)cc2Cl)cc1 (stereo not shown)	32.1
5) CCS(=O)(=O)c1ccc(CC(=O)Nc2cc(Cl)c(-c3ccc(S(=O)(=O)C4CC4)cc3)c(Cl)c2)nc1	183
6) CCS(=O)(=O)c1ccc(-c2c(Cl)cc(NC(=O)Cc3ccc(S(C)(=O)=O)cc3)cc2Cl)cc1	30.4
7) CCS(=O)(=O)c1ccc(CC(=O)Nc2cc(Cl)c(-c3ccc(S(=O)(=O)C4CC4)cc3)c(Cl)c2)cc1	49.2

----------
Measurement Notes: Pharmacokinetic (PK) assay in mice
Assay type: in vivo
Condition Details: mouse, plasma; Po 5 mg/kg, CD-1 mice
Threshold 3 h: half-life strictly smaller gives yes, otherwise no.

1. CS(=O)(=O)c1ccc(CC(=O)Nc2cc(Cl)c(-c3ccc(S(=O)(=O)C4CC4)cc3)c(Cl)c2)cc1	no
2. COC[C@H](C(=O)Nc1cc(Cl)c(-c2ccc(S(=O)(=O)C3CC3)cc2)c(Cl)c1)c1ccc(S(C)(=O)=O)cc1 (single isomer, unassigned)	no
3. CCS(=O)(=O)c1ccc(-c2c(Cl)cc(NC(=O)C(COC)c3ccc(S(=O)(=O)CC)cc3)cc2Cl)cc1 (stereo not drawn)	yes
4. CCS(=O)(=O)c1ccc(C(COC)C(=O)Nc2cc(Cl)c(-c3ccc(S(=O)(=O)C4CC4)cc3)c(Cl)c2)cc1 (single isomer, unassigned) [Example 41]	yes
5. CS(=O)(=O)c1ccc(C(CO)C(=O)Nc2cc(Cl)c(-c3ccc(S(=O)(=O)C4CC4)cc3)c(Cl)c2)cc1 (single isomer, unassigned)	yes
6. CCS(=O)(=O)c1ccc(CC(=O)Nc2cc(Cl)c(-c3ccc(S(C)(=O)=O)cc3)c(Cl)c2)cc1	yes
7. CCS(=O)(=O)c1ccc(C(COC)C(=O)Nc2cc(Cl)c(-c3ccc(S(C)(=O)=O)cc3)c(Cl)c2)cc1 (stereo not drawn)	yes
8. CCS(=O)(=O)c1ccc(C(COC)C(=O)Nc2cc(Cl)c(-c3ccc(S(=O)(=O)C4CC4)cc3)c(Cl)c2)cc1 (stereo not drawn) [Example 16]	no
9. CCS(=O)(=O)c1ccc(-c2c(Cl)cc(NC(=O)Cc3ccc(S(=O)(=O)CC)cn3)cc2Cl)cc1	yes

----------
Measurement Notes: Metabolic stability in human liver microsomes
Assay type: in vitro ADME
Condition Details: 60 min
Criterion: % Remaining (T = 60 min) meeting or surpassing 60%. Met: True. Not met: False.

1. CCS(=O)(=O)c1ccc(CC(=O)Nc2cc(Cl)c(-c3ccc(S(=O)(=O)C4CC4)cc3)c(Cl)c2)nc1	True
2. CCS(=O)(=O)c1ccc(CC(=O)Nc2cc(Cl)c(-c3ccc(S(=O)(=O)C(C)C)cc3)c(Cl)c2)cc1	False
3. CS(=O)(=O)c1ccc(C(CO)C(=O)Nc2cc(Cl)c(-c3ccc(S(=O)(=O)C4CC4)cc3)c(Cl)c2)cc1 (single isomer, unassigned)	True
4. COCC(C(=O)Nc1cc(Cl)c(-c2ccc(S(C)(=O)=O)cc2)c(Cl)c1)c1ccc(S(=O)(=O)CC2CC2)cc1 (centres unmarked)	False
5. CS(=O)(=O)c1ccc(-c2c(Cl)cc(NC(=O)Cc3ccc(S(C)(=O)=O)cn3)cc2Cl)cc1	True
6. COCC(C(=O)Nc1cc(Cl)c(-c2ccc(S(=O)(=O)C3CC3)cc2)c(Cl)c1)c1ccc(S(C)(=O)=O)cc1 (single isomer, unassigned) [Example 34]	True
7. CS(=O)(=O)c1ccc(-c2c(Cl)cc(NC(=O)Cc3ccc(S(=O)(=O)CC4CC4)cc3)cc2Cl)cc1	False
8. CCS(=O)(=O)c1ccc(-c2c(Cl)cc(NCC(C(=O)O)c3ccc(S(=O)(=O)CC)cc3)cc2Cl)cc1 (centres unmarked)	True
9. CCS(=O)(=O)c1ccc(C(CO)C(=O)Nc2cc(Cl)c(-c3ccc(S(=O)(=O)C4CC4)cc3)c(Cl)c2)cc1 (single isomer, unassigned)	True
10. CCS(=O)(=O)c1ccc(CC(=O)Nc2cc(Cl)c(-c3ccc(S(C)(=O)=O)cc3)c(Cl)c2)cc1	True
11. CCS(=O)(=O)c1ccc(-c2c(Cl)cc(NC(=O)Cc3ccc(S(=O)(=O)CC)cn3)cc2Cl)cc1	True
12. CCS(=O)(=O)c1ccc(CC(=O)Nc2cc(Cl)c(-c3ccc(S(=O)(=O)CC)cc3)c(Cl)c2)cc1	False
13. CS(=O)(=O)c1ccc(CC(=O)Nc2cc(Cl)c(-c3ccc(S(C)(=O)=O)cc3)c(Cl)c2)cc1	True

----------
Assay System: GST-RORγ LBD (263-509) (Homo sapiens, UniProt P51449)
Construct: GST-RORγ LBD ((263-509) (produced at ChemPartner))
Sequence (P51449 263-509): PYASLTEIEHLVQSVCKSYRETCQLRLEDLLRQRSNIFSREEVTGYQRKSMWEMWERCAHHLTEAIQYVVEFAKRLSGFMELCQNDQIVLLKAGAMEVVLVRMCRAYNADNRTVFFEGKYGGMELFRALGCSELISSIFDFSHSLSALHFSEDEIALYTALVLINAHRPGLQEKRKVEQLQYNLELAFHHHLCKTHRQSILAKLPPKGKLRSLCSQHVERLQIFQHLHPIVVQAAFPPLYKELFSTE
Measurement Notes: TR-FRET assay of agonistic activity on RORγ receptor
Condition Details: TR-FRET, GST-RORγ LBD with Biotin-SRC1
pEC50: −log10 of the molar value.
Each record here notes measured pEC50.
Metric: pEC50

1) CCS(=O)(=O)c1ccc(C(CO)C(=O)Nc2cc(Cl)c(-c3ccc(S(=O)(=O)C4CC4)cc3)c(Cl)c2)cc1 (stereo not shown) [Example 22-1]	8.15
2) CS(=O)(=O)c1ccc(CC(=O)Nc2cc(Cl)c(-c3ccc(S(C)(=O)=O)cc3)c(Cl)c2)cc1	8.00
3) CS(=O)(=O)c1ccc(C(CO)C(=O)Nc2cc(Cl)c(-c3ccc(S(=O)(=O)C4CC4)cc3)c(Cl)c2)cc1 (single isomer, unassigned) [Example 37]	7.56
4) CCS(=O)(=O)c1ccc(-c2c(Cl)cc(NCC(C(=O)O)c3ccc(S(=O)(=O)CC)cc3)cc2Cl)cc1 (stereo not shown)	8.17
5) CCS(=O)(=O)c1ccc(CC(=O)Nc2cc(Cl)c(-c3ccc(S(=O)(=O)C(C)C)cc3)c(Cl)c2)cc1	7.85
6) CS(=O)(=O)c1ccc(CC(=O)Nc2cc(Cl)c(-c3ccc(S(=O)(=O)C4CC4)cc3)c(Cl)c2)cc1	8.17
7) CCS(=O)(=O)c1ccc(-c2c(Cl)cc(NC(=O)Cc3ccc(S(=O)(=O)CC)cn3)cc2Cl)cc1	8.07
8) CCS(=O)(=O)c1ccc(C(CO)C(=O)Nc2cc(Cl)c(-c3ccc(S(=O)(=O)C4CC4)cc3)c(Cl)c2)cc1 (single isomer, unassigned) [Example 38]	8.23
9) CCS(=O)(=O)c1ccc(C(CO)C(=O)Nc2cc(Cl)c(-c3ccc(S(=O)(=O)C4CC4)cc3)c(Cl)c2)cc1 (single isomer, unassigned) [Example 39]	7.87
10) COCC(C(=O)Nc1cc(Cl)c(-c2ccc(S(=O)(=O)C3CC3)cc2)c(Cl)c1)c1ccc(S(C)(=O)=O)cc1 (stereo not shown) [Example 20]	7.71
11) CS(=O)(=O)c1ccc(C(CO)C(=O)Nc2cc(Cl)c(-c3ccc(S(=O)(=O)C4CC4)cc3)c(Cl)c2)cc1 (single isomer, unassigned) [Example 36]	8.37
12) CCS(=O)(=O)c1ccc(CC(=O)Nc2cc(Cl)c(-c3ccc(S(=O)(=O)CC)cc3)c(Cl)c2)cc1	7.84
13) CCS(=O)(=O)c1ccc(-c2c(Cl)cc(NC(=O)Cc3ccc(S(C)(=O)=O)cn3)cc2Cl)cc1	7.65

----------
Measurement Notes: Metabolic stability in mouse liver microsomes
Format: in vitro ADME, CD-1 mice
Condition Details: 60 min
Metric: % Remaining (T = 60 min)

1. CS(=O)(=O)c1ccc(C(CO)C(=O)Nc2cc(Cl)c(-c3ccc(S(=O)(=O)C4CC4)cc3)c(Cl)c2)cc1 (single isomer, unassigned)	83.9%
2. CS(=O)(=O)c1ccc(-c2c(Cl)cc(NC(=O)Cc3ccc(S(=O)(=O)CC4CC4)cc3)cc2Cl)cc1	15.30%
3. COCC(C(=O)Nc1ccc(-c2ccc(S(=O)(=O)C3CC3)cc2)c(C(F)(F)F)c1)c1ccc(S(C)(=O)=O)cc1 (single isomer, unassigned)	64.4%

----------
Measurement Notes: Metabolic stability in mouse liver microsomes
Assay type: in vitro ADME, CD-1 mice
Condition Details: CD-1
Metric: half-life (h)

1. CCS(=O)(=O)c1ccc(C(CO)C(=O)Nc2cc(Cl)c(-c3ccc(S(=O)(=O)C4CC4)cc3)c(Cl)c2)cc1 (single isomer, unassigned)	1.79
2. COCC(C(=O)Nc1cc(Cl)c(-c2ccc(S(C)(=O)=O)cc2)c(Cl)c1)c1ccc(S(=O)(=O)CC2CC2)cc1 (centres unmarked)	0.402
3. CCS(=O)(=O)c1ccc(-c2c(Cl)cc(NC(=O)C(COC)c3ccc(S(C)(=O)=O)cc3)cc2Cl)cc1 (centres unmarked)	0.487
4. CCS(=O)(=O)c1ccc(-c2c(Cl)cc(NC(=O)Cc3ccc(S(C)(=O)=O)cn3)cc2Cl)cc1	1.64
5. COCC(C(=O)Nc1ccc(-c2ccc(S(=O)(=O)C3CC3)cc2)c(C(F)(F)F)c1)c1ccc(S(C)(=O)=O)cc1 (single isomer, unassigned)	1.56
6. CS(=O)(=O)c1ccc(-c2c(Cl)cc(NC(=O)Cc3ccc(S(=O)(=O)CC4CC4)cc3)cc2Cl)cc1	0.377
7. CCS(=O)(=O)c1ccc(-c2c(Cl)cc(NC(=O)Cc3ccc(S(C)(=O)=O)cc3)cc2Cl)cc1	0.47
